# Tested on: Parastagonospora nodorum
# PROTOCOL TEXT: Antifungal activity against Septoria nodorum after 48 hrs by agar-based microtiter plate assay
# Format: functional
Listed compounds paired with reported log10(LD99)
QUANTITY NAME: log10(LD99) (log10 of the value in mg/mL)

COMPOUND: CCCC[C@H]1C(=O)O[C@H](C)[C@H](NC(=O)c2cccc(NC=O)c2O)C(=O)O[C@@H](C)[C@@H]1OC(=O)CC(C)C [ANTIMYCIN A3]
log10(LD99): -3.70

COMPOUND: O=C1OCC(Cc2ccccc2)=C1c1ccccc1 [GYMNOASCOLIDE A]
log10(LD99): -1.89

COMPOUND: C[C@@H]1C[C@H]2O[C@@H]2/C=C\C=C\C(=O)Cc2c(Cl)c(O)cc(O)c2C(=O)O1
log10(LD99): -1.92

COMPOUND: C[C@@H]1C[C@@H]([C@H](O)CC2CC(=O)NC(=O)C2)C(=O)[C@@H](C)C1 [CYCLOHEXIMIDE]
log10(LD99): -2.20

COMPOUND: C[C@@H]1[C@H](O)[C@@H](C)/C=C/C=C/C=C/C=C/C=C/C=C/C=C/[C@H](O[C@@H]2O[C@H](C)[C@@H](O)[C@H](N)[C@@H]2O)C[C@@H]2O[C@](O)(C[C@@H](O)C[C@@H](O)[C@H](O)CC[C@@H](O)C[C@@H](O)CC(=O)O[C@H]1C)C[C@H](O)[C@H]2C(=O)O
log10(LD99): -2.51

COMPOUND: CN(CC[C@H](N)CC(=O)N[C@@H]1C=C[C@@H](n2ccc(N)nc2=O)O[C@H]1C(=O)O)C(=N)N.Cl [BLASTICIDIN S HCL]
log10(LD99): -2.80

* * *

# System: Candida albicans
# PROTOCOL TEXT: Antifungal activity against Candida albicans after 48 hrs by agar-based microtiter plate assay
# Assay type: functional
QUANTITY NAME: LD99

COMPOUND: CN(CC[C@H](N)CC(=O)N[C@@H]1C=C[C@@H](n2ccc(N)nc2=O)O[C@H]1C(=O)O)C(=N)N.Cl [BLASTICIDIN S HCL]
TESTED TARGET: Candida albicans
VALUE MEASURED: 0.00039 mg/mL
--
COMPOUND: C[C@@H]1C[C@H]2O[C@@H]2/C=C\C=C\C(=O)Cc2c(Cl)c(O)cc(O)c2C(=O)O1 [RADICICOL]
TESTED TARGET: Candida albicans
VALUE MEASURED: 0.012 mg/mL
--
COMPOUND: C[C@@H]1[C@H](O)[C@@H](C)/C=C/C=C/C=C/C=C/C=C/C=C/C=C/[C@H](O[C@@H]2O[C@H](C)[C@@H](O)[C@H](N)[C@@H]2O)C[C@@H]2O[C@](O)(C[C@@H](O)C[C@@H](O)[C@H](O)CC[C@@H](O)C[C@@H](O)CC(=O)O[C@H]1C)C[C@H](O)[C@H]2C(=O)O [AMPHOTERICIN B]
TESTED TARGET: Candida albicans
VALUE MEASURED: 0.0031 mg/mL
--
COMPOUND: CCCC[C@H]1C(=O)O[C@H](C)[C@H](NC(=O)c2cccc(NC=O)c2O)C(=O)O[C@@H](C)[C@@H]1OC(=O)CC(C)C [ANTIMYCIN A3]
TESTED TARGET: Candida albicans
VALUE MEASURED: 0.05 mg/mL
